- System: TK-10
- METHOD SUMMARY: NCI tumour cell line growth inhibition, 48 h
The source made the active and inactive calls. No stated cut-off is given here; in the data, active = GI50 up to about 1.1 µM and inactive = higher.
Allowed answers: active, inactive

Please review the following examples before continuing.
O=c1[nH]c(-c2ccccc2)nc2cc(Cl)ccc12 = inactive
Cc1ccc(S(=O)(=O)N/N=C2/CCC(C(C)(C)C)CC2Br)cc1 (configuration not stated) = inactive
COc1cc([C@H]2c3cc4c(cc3O[C@@]3(O)COC(=O)[C@@H]23)OCO4)cc(OC)c1OC = inactive
CC(C)(C)[Si](OC1CCOC1=O)(c1ccccc1)c1ccccc1 (configuration not stated) = inactive
COc1ccc2c3c1OC1C4(CCC5C(C2)N(CC2CC2)CCC351)OCCO4 (configuration not stated) = inactive

Q: // return assay outcome for O=C(N/N=C(COc1ccccc1Cl)\N=C\c1ccncc1)c1ccncc1
A: inactive

Q: // return assay outcome for COc1ccc2c(c1)OC1c3ccccc3OCC21 (configuration not stated)
A: inactive

Q: // return assay outcome for COc1ccc2c(c1)-c1nc(=O)n(CCCN(C)C)c3ccc([N+](=O)[O-])c(c13)N2
A: active

Q: // return assay outcome for COc1ccccc1C1C2=C(COC2=O)OC(C)(C)Oc2cc3c(cc21)OCO3 (configuration not stated)
A: inactive

Q: // return assay outcome for CC(=O)OC(C)(C)C1CCC(C)(C(O)COc2ccc(CCNC(=O)c3ccccc3)cc2)O1 (configuration not stated)
A: inactive

Q: // return assay outcome for O=C(NNS(=O)(=O)c1ccccc1)c1csc(NC(=S)NC2CCCCC2)n1
A: inactive

Q: // return assay outcome for CC(C)=CCC/C(C)=C/CC/C(C)=C/CSc1ccccc1C(=O)O
A: inactive

Q: // return assay outcome for O=[N+]([O-])C(/C=C(\Cl)[N+](=O)[O-])=C1Nc2ccccc2N1
A: inactive

Q: // return assay outcome for Cc1ccc(O)c(C2=CC(c3cccc(Cl)c3)SC(=N)N2)c1 (configuration not stated)
A: inactive

Q: // return assay outcome for O=C1OC(c2ccc(Cl)cc2)=N/C1=C\c1ccccc1
A: inactive

Q: // return assay outcome for COC(=O)c1c[nH]cc1CCc1c[nH]cc1C(=O)OC
A: inactive

Q: // return assay outcome for Cc1cc(S(=O)(=O)Nc2nc3cscc3c(=O)n2N)c(S)cc1Cl
A: inactive

Data credit: ChEMBL document CHEMBL1201862
